Hey, just so you know, these numbers are from patent US20100075907A1.

testedOn: hNMUR1 (Homo sapiens)
Sequence (Q9HB89 whole entry): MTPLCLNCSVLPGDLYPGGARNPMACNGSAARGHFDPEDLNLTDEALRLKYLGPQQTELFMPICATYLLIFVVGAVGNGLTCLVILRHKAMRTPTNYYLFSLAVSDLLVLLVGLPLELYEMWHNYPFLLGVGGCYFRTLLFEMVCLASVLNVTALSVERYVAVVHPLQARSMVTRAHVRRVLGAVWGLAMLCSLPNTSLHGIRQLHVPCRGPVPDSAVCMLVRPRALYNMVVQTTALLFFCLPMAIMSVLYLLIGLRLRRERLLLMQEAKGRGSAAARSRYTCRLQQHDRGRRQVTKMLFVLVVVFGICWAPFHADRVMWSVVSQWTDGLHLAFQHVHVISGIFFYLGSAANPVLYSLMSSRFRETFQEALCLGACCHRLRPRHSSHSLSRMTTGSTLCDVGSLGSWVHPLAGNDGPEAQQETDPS
protocolText: FLIPR calcium mobilization assay, human NMUR1
Type: cell-based
Parameters: expressed in transfected cells; host or cells: FLP-In CHO or HEK-293 FLP-In cells (pcDNA5); HEK-293/aeq17 lines (pIRES-puro) were also made
experimentalConditions: maximum response at 1 μM compared to hNMU-25 response at same concentration; human NMUR1
Starred links: 1 amine or outer side, 2 acyl side, 3 side chain; linkers in the order of their positions; H or OH if unused. Residues, ends and D or L forms follow the SMILES beside them. *: point of attachment. X1 = CC(C)CCC[C@@H](C)[C@H]1CC[C@H]2[C@@H]3CC=C4C[C@@H](OC(=O)C*)CC[C@]4(C)[C@H]3CC[C@]12C; X2 = CCN1C(=O)CC(SC[C@H](NC(C)=O)C(=O)NCCCOCCOCCOCCCN*)C1=O; Succinimide(1-Et,3-yl) = CCN1C(=O)CC(*)C1=O; Suc = O=C(CCC(=O)[*:2])[*:1]
quantityKind: % Activity (%)
Quick reminder: number only, in %, skip the unit.

# compound CCN1C(=O)CC(SC[C@H](NC(C)=O)C(=O)NCC(=O)N[C@@H](Cc2ccc(O)cc2)C(=O)N[C@@H](Cc2ccccc2)C(=O)N[C@@H](CC(C)C)C(=O)N[C@@H](Cc2ccccc2)C(=O)N[C@@H](CCCNC(=N)N)C(=O)N2CCC[C@H]2C(=O)N[C@@H](CCCNC(=N)N)C(=O)N[C@@H](CC(N)=O)C(N)=O)C1=O (stereo partly shown) [NMU6] (Ac-C(Succinimide(1-Et,3-yl))GYFLFRPRN-NH2) ; its % Activity = 96.7

# compound CCN1C(=O)CC(SC[C@H](NC(C)=O)C(=O)N[C@@H](C)C(=O)N[C@@H](CO)C(=O)N[C@@H](CCC(N)=O)C(=O)N[C@@H](CO)C(=O)N[C@@H](CCCNC(=N)N)C(=O)NCC(=O)N[C@@H](Cc2ccc(O)cc2)C(=O)N[C@@H](Cc2ccccc2)C(=O)N[C@@H](CC(C)C)C(=O)N[C@@H](Cc2ccccc2)C(=O)N[C@@H](CCCNC(=N)N)C(=O)N2CCC[C@H]2C(=O)N[C@@H](CCCNC(=N)N)C(=O)N[C@@H](CC(N)=O)C(N)=O)C1=O (stereo partly shown) [NMU17] (Ac-C(Succinimide(1-Et,3-yl))ASQSRGYFLFRPRN-NH2) ; its % Activity = 100

# compound CCN1C(=O)CC(SC[C@H](NC(C)=O)C(=O)NCCCOCCOCCOCCCNC(=O)CCC(=O)N[C@@H](Cc2ccccc2)C(=O)N[C@@H](CC(C)C)C(=O)N[C@@H](Cc2ccccc2)C(=O)N[C@@H](CCCNC(=N)N)C(=O)N2CCC[C@H]2C(=O)N[C@@H](CCCNC(=N)N)C(=O)N[C@@H](CC(N)=O)C(N)=O)C1=O (stereo partly shown) [NMU15, Ac-C1-Ttds-FLFRPRN-CONH2] ({X2-Suc}-FLFRPRN-NH2) ; its % Activity = 91.5

# compound CC(=O)N[C@@H](CSCC(=O)O[C@H]1CC[C@@]2(C)C(=CC[C@H]3[C@@H]4CC[C@H]([C@H](C)CCCC(C)C)[C@@]4(C)CC[C@@H]32)C1)C(=O)NCC(=O)N[C@@H](Cc1ccc(O)cc1)C(=O)N[C@@H](Cc1ccccc1)C(=O)N[C@@H](CC(C)C)C(=O)N[C@@H](Cc1ccccc1)C(=O)N[C@@H](CCCNC(=N)N)C(=O)N1CCC[C@H]1C(=O)N[C@@H](CCCNC(=N)N)C(=O)N[C@@H](CC(N)=O)C(N)=O [NMU11] (Ac-C(X1)GYFLFRPRN-NH2) ; its % Activity = 20.6

---

testedOn: rat NMUR2 (Rattus norvegicus, UniProt Q9ESQ4)
Sequence (Q9ESQ4 whole entry): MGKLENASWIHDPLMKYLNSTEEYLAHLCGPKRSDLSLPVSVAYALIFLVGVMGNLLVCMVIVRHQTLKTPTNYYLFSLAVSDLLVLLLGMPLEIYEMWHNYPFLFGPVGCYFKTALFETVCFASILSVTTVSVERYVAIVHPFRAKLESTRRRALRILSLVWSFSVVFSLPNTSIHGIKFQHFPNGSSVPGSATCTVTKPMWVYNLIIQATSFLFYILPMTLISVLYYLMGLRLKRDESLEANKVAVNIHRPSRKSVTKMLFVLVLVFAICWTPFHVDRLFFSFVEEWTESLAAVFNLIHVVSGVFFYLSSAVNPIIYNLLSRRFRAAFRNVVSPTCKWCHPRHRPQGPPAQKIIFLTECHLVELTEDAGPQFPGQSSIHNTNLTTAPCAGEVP
protocolText: FLIPR calcium mobilization assay, rat NMUR2
Format: cell-based
Parameters: expressed in transfected cells; host or cells: FLP-In CHO or HEK-293 FLP-In cells (pcDNA5)
experimentalConditions: FLIPR, rat NMUR2
*: point of attachment. Palmitoyl = CCCCCCCCCCCCCCCC(=O)*
Consider the following substances; for each one, report its pEC50.
On this scale, pEC50 is minus log10 of a concentration expressed in M (mol/L).

Item Ac-C4-C4-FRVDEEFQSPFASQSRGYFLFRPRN-CONH2 ({Ac-C(PEG 20 kDa)-C(PEG 20 kDa)}-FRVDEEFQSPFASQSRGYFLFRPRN-NH2) [NMU23, C4 = Cys(PEG)20 kDa] ; assay system rat NMUR2 (Rattus norvegicus, UniProt Q9ESQ4); pEC50 reported as 7.32

Item Ac-C2FQSPFASQSRGYFLFRPRN-CONH2 ({Ac-C(PEG 40 kDa)}-FQSPFASQSRGYFLFRPRN-NH2; not fully specified; printed as Ac-C2FQSPFASQSRGYFLFRPRN-CONH2) [NMU20, C2 = Cys(PEG)240 kDa] ; assay system rat NMUR2 (Rattus norvegicus, UniProt Q9ESQ4); pEC50 reported as 7.77

Item Pam-C2FRVDEEFQSPFASQSRGYFLFRPRN-CONH2 ({Palmitoyl-C(PEG 40 kDa)}-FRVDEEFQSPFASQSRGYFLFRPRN-NH2) [NMU25, Pam = palmitoyl; C2 = Cys(PEG)240 kDa] ; assay system rat NMUR2 (Rattus norvegicus, UniProt Q9ESQ4); pEC50 reported as 7.42

---

testedOn: Mouse NMUR1-CTG (Mus musculus, UniProt O55040)
Sequence (O55040 whole entry): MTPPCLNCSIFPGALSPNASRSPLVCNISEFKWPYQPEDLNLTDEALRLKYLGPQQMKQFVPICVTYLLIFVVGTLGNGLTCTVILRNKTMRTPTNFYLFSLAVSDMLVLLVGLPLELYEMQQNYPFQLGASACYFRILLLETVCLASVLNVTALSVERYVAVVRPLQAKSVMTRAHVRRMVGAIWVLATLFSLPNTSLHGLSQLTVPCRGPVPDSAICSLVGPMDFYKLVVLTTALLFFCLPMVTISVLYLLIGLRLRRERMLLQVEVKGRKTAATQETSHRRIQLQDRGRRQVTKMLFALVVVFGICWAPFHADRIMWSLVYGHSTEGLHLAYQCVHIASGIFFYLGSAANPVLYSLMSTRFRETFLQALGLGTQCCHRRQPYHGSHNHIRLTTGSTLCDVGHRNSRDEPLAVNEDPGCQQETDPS
protocolText: 125I-hNMU-25 binding assay, mouse R1-CTG
Design: expressed in transfected cells; host or cells: HEK-293 FLP-In cells (pcDNA5)
experimentalConditions: binding
quantityKind: IC50 (nM)
Quick reminder: number only, in nM, skip the unit.

# substance H-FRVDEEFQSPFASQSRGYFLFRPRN-NH2 [hNMU-25, reference compound] ; its IC50 = 0.15

---

Test system: diet-induced obese mice
protocolText: Feeding study in diet-induced obese mice (food intake, body weight)
Type: in vivo
experimentalConditions: 10 mg/kg, Day 3, based on vehicle responses
Consider the following substances; for each one, report its % Food intake (FI) reductions Day 3.
Quick reminder: number only, in %, skip the unit.

# substance Ac-C2FRVDEEFQSPFASQSRGYFLFRPRN-CONH2 [NMU9] ({Ac-C(PEG 40 kDa)}-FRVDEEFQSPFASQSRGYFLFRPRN-NH2) [C2 = Cys(PEG)240 kDa from Nektar (mPEG2-MAL-40 k)] ; its % Food intake (FI) reductions Day 3 = 18

# substance Ac-C2FQSPFASQSRGYFLFRPRN-CONH2 ({Ac-C(PEG 40 kDa)}-FQSPFASQSRGYFLFRPRN-NH2; not fully specified; printed as Ac-C2FQSPFASQSRGYFLFRPRN-CONH2) [NMU20, C2 = Cys(PEG)240 kDa] ; its % Food intake (FI) reductions Day 3 = 23

# substance Ac-C2FRVDEEFQSPFASQSRGYFLFRPRN-CONH2 [NMU12] (Ac-C((PEG)2 40 kDa)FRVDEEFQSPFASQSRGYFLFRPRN-NH2) [C2 = Cys(PEG)240 kDa from NOF Corporation (SUNBRIGHT GL2-400MA)] ; its % Food intake (FI) reductions Day 3 = 15

# substance P1-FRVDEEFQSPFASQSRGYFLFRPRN-CONH2 ({branched PEG 40 kDa}-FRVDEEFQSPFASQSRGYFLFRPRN-NH2) [NMU1, P1 = (PEG)240 kDa; branched PEG of 40 kDa linked at N-terminus of native human NMU] ; its % Food intake (FI) reductions Day 3 = 22

---

testedOn: UniProt:Q9GZQ4
Sequence (Q9GZQ4 whole entry): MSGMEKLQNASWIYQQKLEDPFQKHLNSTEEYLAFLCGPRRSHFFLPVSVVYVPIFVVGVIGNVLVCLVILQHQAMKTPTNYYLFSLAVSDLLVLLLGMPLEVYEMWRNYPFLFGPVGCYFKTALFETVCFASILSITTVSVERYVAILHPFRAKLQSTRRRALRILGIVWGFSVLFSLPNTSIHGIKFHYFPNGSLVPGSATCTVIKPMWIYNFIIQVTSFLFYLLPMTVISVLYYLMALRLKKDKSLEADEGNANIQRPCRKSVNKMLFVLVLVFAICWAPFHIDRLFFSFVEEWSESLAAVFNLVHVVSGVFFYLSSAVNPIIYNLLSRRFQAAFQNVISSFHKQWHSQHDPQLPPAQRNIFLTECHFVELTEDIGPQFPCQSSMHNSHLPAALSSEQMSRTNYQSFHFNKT
protocolText: In vitro functional assay, HEK-hR2 cells
Format: cell-based
Design: expressed in transfected cells; host or cells: FLP-In CHO or HEK-293 FLP-In cells (pcDNA5); HEK-293/aeq17 lines (pcDNA3.1) were also made; concentration or dose not given beside the values
experimentalConditions: Table 9, HEK-hR2, functional
Non-standard residues stand in square brackets, D forms with d. Residues, ends and D or L forms follow the SMILES beside them. hArg = N=C(N)NCCCC[C@H](N)C(=O)O; dNle = CCCC[C@@H](N)C(=O)O
Consider the following compounds; for each one, report its % Activity.
Quick reminder: number only, in %, skip the unit.

# compound CCCC[C@@H](NC(=O)[C@H](CCCNC(=N)N)NC(=O)[C@H](C)NC(=O)[C@H](CCCNC(=N)N)NC(=O)[C@H](Cc1ccccc1)NC(=O)[C@H](CC(C)C)NC(=O)[C@H](Cc1ccccc1)NC(=O)[C@@H](N)Cc1c[nH]c2ccccc12)C(N)=O [Agonist K, WFLFRAR-(D-Nle)-CONH2] (H-WFLFRAR[dNle]-NH2) ; its % Activity = 100

# compound CC(C)C[C@H](NC(=O)[C@H](Cc1c[nH]c2ccccc12)NC(=O)[C@@H](N)Cc1ccccc1)C(=O)N[C@@H](Cc1ccccc1)C(=O)N[C@@H](CCCNC(=N)N)C(=O)N[C@@H](C)C(=O)N[C@@H](CCCCNC(=N)N)C(=O)N[C@@H](CC(N)=O)C(N)=O [Agonist J, FWLFRA-(Harg)-N-CONH2] (H-FWLFRA[hArg]N-NH2) ; its % Activity = 59

# compound CC(C)C[C@H](NC(=O)[C@H](Cc1c[nH]c2ccccc12)NC(=O)[C@@H](N)Cc1ccccc1)C(=O)N[C@@H](Cc1ccccc1)C(=O)N[C@@H](CCCNC(=N)N)C(=O)N1CCC[C@H]1C(=O)N[C@@H](CCCCNC(=N)N)C(=O)N[C@@H](CC(N)=O)C(N)=O [Agonist I, FWLFRP-(Harg)-N-CONH2] (H-FWLFRP[hArg]N-NH2) ; its % Activity = 99

# compound CC(C)C[C@H](NC(=O)[C@H](Cc1ccccc1)NC(=O)[C@@H](N)Cc1ccc(O)cc1)C(=O)N[C@@H](Cc1ccccc1)C(=O)N[C@@H](CCCNC(=N)N)C(=O)N1CCC[C@H]1C(=O)N[C@@H](CCCNC(=N)N)C(=O)N[C@@H](CC(N)=O)C(N)=O [NMU-8, reference compound] ; its % Activity = 104
